biological target: Angiotensin-converting enzyme (Sus scrofa); assay: Inhibitory activity on Angiotensin I converting enzyme (ACE) obtained from pig renal cortex and hippuryl-histidyl-leucine as substrate
PROPERTY MEASURED: pIC50
Please keep in mind that pIC50 is minus log10 of the molar concentration; only the number is needed.

{"columns": ["SMILES", "pIC50"],
 "data": [
  ["CCCCCCCC[C@H](N[C@@H](CC)C(=O)N1C(=O)N(Cc2ccccc2)C[C@H]1C(=O)O)C(=O)O", 8.68]
]}

Continue with the compound presented below.
C[C@H](N)C(=O)N1C(=O)N(Cc2ccccc2)C[C@H]1C(=O)O yielded pIC50 of 5.82

From: BindingDB's records for doi:10.1021/jm00122a003
